- Test system: Panzytrat® 40,000 (pancreatin)
- METHOD: Cleavage experiments with and without Panzytrat 40,000 in FaSSGF medium (simulates the stomach, pH 1.6)
- MEASUREMENT CONTEXT: the 11th table; FaSSGF (stomach, pH = 1.6), with Panzytrat, 24 h, 35° C.
Param label: returns true when share in chromatogram, FaSSGF m.P. 24 h, 35° C. < 10 % area, returns false otherwise, including exact equality.

Study these solved cases before continuing.
MOLECULE | CLASS NAME
CC(O)CC(=O)OC(C)CC(=O)OCC(CO)OC(=O)CC(C)O (stereo not drawn) | true
CC(O)CC(=O)OCC(CO)OC(=O)CC(C)O (stereo not drawn) [3-BHB-DG, diglyceride of 3-hydroxybutyric acid] | false

Input line: Confirm or reject: share in chromatogram, FaSSGF m.P. 24 h, 35° C. of CC(O)CC(=O)OCC(O)CO (stereo not drawn) [3-BHB-MG, monoglyceride of 3-hydroxybutyric acid] lies strictly below 10 % area
Output line: false

Input line: Confirm or reject: share in chromatogram, FaSSGF m.P. 24 h, 35° C. of CC(O)CC(=O)OC(C)CC(=O)O (stereo not drawn) [3-BHB-dimer-FS, dimer of 3-hydroxybutyric acid] lies strictly below 10 % area
Output line: true

Input line: Confirm or reject: share in chromatogram, FaSSGF m.P. 24 h, 35° C. of CC(O)CC(=O)OC(C)CC(=O)OCC(O)CO (stereo not drawn) lies strictly below 10 % area
Output line: true
